System: lambsquarters
PROTOCOL_SUMMARY: Test C postemergence
Format: in vivo, Chenopodium album
CONDITION_LABEL: postemergence, 250 g ai/ha; scale 0 to 100 (0 no effect, 100 complete control)
ENDPOINT_NAME: Plant response rating, Lambsquarters

INSERT INTO measurements (record_smiles, reported_value) VALUES
  ('CCOc1cc(C(=O)NC2CC2)nn1Cc1ccnc(C(F)(F)F)c1', 85),
  ('CCCc1cc(C(=O)NCC(F)(F)F)nn1Cc1ccnc(C(F)(F)F)c1', 98),
  ('CCc1cc(C(=O)NC2CC2)nn1Cc1ccnc(OCC(F)(F)F)c1', 95);

Just for reference, patent US20150105252A1 is where these values come from.
